system: T cell lines obtained from HDM allergic individuals and non-allergics; assay: In vitro T cell proliferation test in T cell lines (Example 3); assay type: cell-based, human; conditions: T cell lines from non-allergics (n=8); 0.5 or 2 ug/ml; 72 h
quantity measured: % responders of in-vitro T cell proliferation test, Non-allergics (%)
Please state the figure in %; there is no need to write the unit.

I'd like to know its % responders of in-vitro T cell proliferation test, Non-allergics. The molecule in question is A025: house dust mite protein; SEQ ID NO: 17 (Der f), 18 (Der p) (protein) QSLFVDYNDYSCGSSQNETNELIQEFKIFKKNINGNENFKKINDFIEKARLFRDNAAKQMLEIDQQLLTLNVIQISQRIKLENNKIQCEKLTKFSELLSMQLLAYEVGMFEFAEEIDPNIDFDRKMKNFLDETSRLFNLAEFEKLEKKFRNATSIEKLKNYIDGELVALNDYINEFLKDIIMSEFTVQSRYYLNFSIEDQVQIDSTLMTFSALKILLNDLKDYLEHLDN
0

Do the same for A001: house dust mite protein; SEQ ID NO: 13 (Der f), 14 (Der p); recombinant test protein (protein) KKSPDCDIERPIRECLKDGLLRYSSGQKINQFPDTIQDLNRACEELKKSETCARTFIDTCTESSYEKRSLDSLLDGIQRVMKRLCRSQTKKEKLLENVGCANSVVQDTKQCLKNYRMLVFAANKLDNKNKIMRILCCKSRKVAPCIGEAMKAKGTAVCSAKNIDYFKDVHQNIKQEMTAVVCSDFERDQCENVDVPNISESEYKDQNIFNPLRDLYKKVILG please
0

Do the same for A003: house dust mite protein; SEQ ID NO: 2 (Der f), 3 (Der p), 305 (Blo t) (protein) MAIDGKYQMESSEHFEEFVKEMGLDVDMTNVDLSKTSTMEICKDGDVYHIKSETAGIAHEIKFKVGEEFEDDMNGHKFKNVVTMECDNKMVQKKTSADGGKVVNVVREFTDAGCTVKSTYNTVTWTRVYKRM please
0

Where do the numbers come from? From patent US10556936B2.
